Values were extracted from ChEMBL document CHEMBL4513216.

# Tested on: Plasmodium berghei
# Method description: Screen against P. berghei liver stage (PbLuc), transformed with Luciferase, at 10uM
# Assay type: functional, HepG2
# Details: tested at 10 uM
The whole screen tested about 69,000 compounds, of which about 8,600 (12%) showed an effect of 50% or more. The sample holds strong results, similar compounds and a random draw of the others, so the mix is not that of the screen.
Measured INHIBITION, listed per entry.
Output spec: scalar in %, unitless text.

Guide cases for INHIBITION, answers given:
- CCCC1CCN(C(=O)c2coc(COc3ccc(OC)cc3)n2)C1 (centres undefined): 19.5
- COc1ccc(OCc2nc(C(=O)N3CCCNC(=O)C3)co2)cc1: 53.6

Param readout= INHIBITION; system= Plasmodium berghei; entry= CCC(C)NC(=O)Nc1cccc(OCC#N)c1 (centres undefined) ; returns value. 5.29

Param readout= INHIBITION; system= Plasmodium berghei; entry= "CC(=O)c1ccccc1-c1nc(CC2CCN(C)CC2)no1" ; returns value. 24.7

Param readout= INHIBITION; system= Plasmodium berghei; entry= "COc1cc(C)ccc1OCc1nc(C(=O)N2CCC(C)CC2)co1" ; returns value. 5.33

Param readout= INHIBITION; system= Plasmodium berghei; entry= c1ccc2oc(N3CCCC3Cn3cncn3)nc2c1 (centres undefined) ; returns value. -41.1

Param readout= INHIBITION; system= Plasmodium berghei; entry= "CS(=O)(=O)N1CCc2[nH]nc(Cc3cccs3)c2C1" ; returns value. 0.472

Param readout= INHIBITION; system= Plasmodium berghei; entry= "NC(=O)CN1CCC(C(=O)NCc2nc(-c3ccc(F)cc3)cs2)CC1" ; returns value. 55.2

Param readout= INHIBITION; system= Plasmodium berghei; entry= "CCCS(=O)(=O)CCN1CCN(c2cc(F)ccc2F)CC1" ; returns value. 25.2
